# assay_target: M2 muscarinic receptors (Rattus norvegicus)
# Construct: displacing from rat brain homogenates, cerebellum or frontal cortex; from tissue; host or cells: rat cerebellum homogenates
# method_notes: Displacement of 3H-QNB from rat cerebellum, 50 mM phosphate buffer
# Format: binding
# measurement_parameters: read-out: 3H-QNB-Binding KH (c); cerebellum, Table 4
assay_readout: Ki (µM)

>  <compound>
CC1=NCC2(CN3CCC2CC3)O1 (racemic)

>  <assay_target>
M2 muscarinic receptors (Rattus norvegicus)

>  <assay_readout>
Ki

>  <unit_name>
µM

>  <result>
3.8

$$$$

* * *

# assay_target: M2 muscarinic receptors (Rattus norvegicus, UniProt P10980)
# Construct: displacing from rat brain homogenates, cerebellum or frontal cortex; from tissue; host or cells: rat cerebellum homogenates
# method_notes: Displacement of 3H-QNB from rat cerebellum, 50 mM phosphate buffer
# Assay type: binding
# measurement_parameters: 3H-QNB-Binding KH (c), cerebellum, Table 4
Each entry below carries its recorded Ki.

>  <molecule>
C[N+](C)(C)CC#CCN1CCCC1=O [Oxotremorine-M, reference compound]

>  <Ki (nM)>
69

$$$$
>  <molecule>
CCC1=NCC2(CN3CCC2CC3)O1 (racemic) [AF123]

>  <Ki (nM)>
3900

$$$$
>  <molecule>
O=C1CCCN1CC#CCN1CCCC1 [Oxotremorine]

>  <Ki (nM)>
14

$$$$
>  <molecule>
CC1OC2(CS1)CN1CCC2CC1 (stereo not shown) [AF102B, reference compound]

>  <Ki (nM)>
6000

$$$$

* * *

# assay_target: M2 muscarinic receptors (Rattus norvegicus)
# Construct: displacing from rat brain homogenates, cerebellum or frontal cortex; from tissue; host or cells: rat cerebellum homogenates
# Sequence (P10980 1-466): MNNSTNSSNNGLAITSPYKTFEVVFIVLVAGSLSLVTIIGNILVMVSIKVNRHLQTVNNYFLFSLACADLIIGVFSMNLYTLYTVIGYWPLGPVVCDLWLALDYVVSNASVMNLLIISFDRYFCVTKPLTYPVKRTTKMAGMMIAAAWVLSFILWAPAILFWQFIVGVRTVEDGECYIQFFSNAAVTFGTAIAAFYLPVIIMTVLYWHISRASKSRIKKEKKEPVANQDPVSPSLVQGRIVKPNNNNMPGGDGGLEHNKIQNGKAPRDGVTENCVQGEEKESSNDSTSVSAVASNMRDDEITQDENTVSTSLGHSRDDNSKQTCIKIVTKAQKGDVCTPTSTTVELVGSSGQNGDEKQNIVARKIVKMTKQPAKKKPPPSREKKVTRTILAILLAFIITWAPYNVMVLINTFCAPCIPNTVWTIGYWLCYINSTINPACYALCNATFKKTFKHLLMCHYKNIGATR
# method_notes: Displacement of 3H-QNB from rat cerebellum, 50 mM phosphate buffer
# Type: binding
# measurement_parameters: 3H-QNB-Binding KL (d), cerebellum, Table 4
pKi: −log10 of the molar value.
assay_readout: pKi

>  <molecule>
C[N+](C)(C)CC#CCN1CCCC1=O [Oxotremorine-M, reference compound]

>  <result>
5.28

$$$$
>  <molecule>
O=C1CCCN1CC#CCN1CCCC1 [Oxotremorine]

>  <result>
6.24

$$$$

* * *

# System: muscarinic receptors
# method_notes: (-)3H-QNB binding to rat cerebral cortex homogenates with and without Cu++ treatment
# measurement_parameters: with Cu++ pretreatment (100 µM, 30 minutes)
# %H (% of high affinity state) values compiled below
assay_readout: %H (% of high affinity state)

>  <compound>
CN1CCN(CC(=O)N2c3ccccc3C(=O)Nc3cccnc32)CC1 [Pirenzepine]

>  <assay_target>
muscarinic receptors

>  <result>
64±6%

$$$$
>  <compound>
O=C1CCCN1CC#CCN1CCCC1

>  <assay_target>
muscarinic receptors

>  <result>
51%

$$$$
>  <compound>
CC1=NCC2(CCN(C)CC2)O1

>  <assay_target>
muscarinic receptors

>  <result>
37%

$$$$
>  <compound>
C[N+](C)(C)CC#CCOC(=O)Nc1cccc(Cl)c1

>  <assay_target>
muscarinic receptors

>  <result>
30±7%

$$$$
>  <compound>
CN1[C@@H]2C[C@@H](OC(=O)[C@H](CO)c3ccccc3)C[C@H]1[C@@H]1O[C@@H]12

>  <assay_target>
muscarinic receptors

>  <result>
0%

$$$$
>  <compound>
CC1OC2(CS1)CN1CCC2CC1 (stereo not drawn) [AF102B, reference compound]

>  <assay_target>
muscarinic receptors

>  <result>
26%

$$$$

* * *

# assay_target: M1 muscarinic receptor (Rattus norvegicus, UniProt P08482)
# Sequence (P08482 whole entry): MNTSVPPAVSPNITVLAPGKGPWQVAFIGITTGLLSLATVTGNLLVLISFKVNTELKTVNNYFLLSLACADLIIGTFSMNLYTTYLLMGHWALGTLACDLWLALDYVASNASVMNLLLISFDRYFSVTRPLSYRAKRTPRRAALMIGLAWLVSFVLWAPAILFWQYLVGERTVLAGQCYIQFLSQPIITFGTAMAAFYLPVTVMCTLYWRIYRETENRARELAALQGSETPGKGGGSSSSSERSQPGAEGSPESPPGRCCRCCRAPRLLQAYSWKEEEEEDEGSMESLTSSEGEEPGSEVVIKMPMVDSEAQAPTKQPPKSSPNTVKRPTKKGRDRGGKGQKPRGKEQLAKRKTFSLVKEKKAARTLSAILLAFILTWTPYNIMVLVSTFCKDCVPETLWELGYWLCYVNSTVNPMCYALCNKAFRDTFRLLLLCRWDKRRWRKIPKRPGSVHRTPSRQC
# method_notes: Displacement of 3H-PZ from cortical binding sites, Tris/Mn buffer, with and without GppNHp
# Design: from tissue; host or cells: rat cerebral cortex homogenates
# measurement_parameters: KH, +G (0.1 mM GppNHp)
assay_readout: Ki (nM)

>  <compound>
C[N+](C)(C)CC#CCN1CCCC1=O [Oxotremorine-M, reference compound]

>  <assay_readout>
Ki

>  <unit_name>
nM

>  <result>
350

$$$$

* * *

# assay_target: m3 subtype (SK-N-SH cells) (Homo sapiens, UniProt P20309)
# Construct: endogenous in cells
# Sequence (P20309 whole entry): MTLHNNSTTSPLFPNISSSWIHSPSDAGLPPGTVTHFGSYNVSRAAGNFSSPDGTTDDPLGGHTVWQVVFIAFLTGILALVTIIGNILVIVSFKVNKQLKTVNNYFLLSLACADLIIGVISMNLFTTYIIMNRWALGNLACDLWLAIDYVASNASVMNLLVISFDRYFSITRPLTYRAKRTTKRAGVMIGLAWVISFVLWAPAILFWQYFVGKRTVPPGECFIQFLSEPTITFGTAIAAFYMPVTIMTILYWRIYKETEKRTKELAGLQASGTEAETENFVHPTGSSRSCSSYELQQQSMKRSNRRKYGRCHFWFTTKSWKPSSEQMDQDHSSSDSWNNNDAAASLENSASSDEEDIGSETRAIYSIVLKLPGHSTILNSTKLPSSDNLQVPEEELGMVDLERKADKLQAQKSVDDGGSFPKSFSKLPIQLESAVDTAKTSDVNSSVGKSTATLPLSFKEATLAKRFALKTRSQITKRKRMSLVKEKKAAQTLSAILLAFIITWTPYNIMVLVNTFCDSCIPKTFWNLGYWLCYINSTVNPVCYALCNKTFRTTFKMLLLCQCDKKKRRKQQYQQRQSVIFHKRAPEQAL
# method_notes: PI hydrolysis in SK-N-SH neuroblastoma cells
# measurement_parameters: SK-N-SH m3, PI hydrolysis
pEC50: −log10 of the molar value.
assay_readout: pEC50

>  <compound>
CC1=NCC2(CCN(C)CC2)O1 [AF150]

>  <assay_target>
m3 subtype (SK-N-SH cells) (Homo sapiens, UniProt P20309)

>  <assay_readout>
pEC50

>  <result>
5.52

$$$$

* * *

# assay_target: M1 muscarinic receptor (Rattus norvegicus, UniProt P08482)
# method_notes: Displacement of 3H-PZ from rat cerebral cortex, 10 mM phosphate buffer
# Type: binding
# Set-up: from tissue; host or cells: rat cerebral cortex homogenates
# measurement_parameters: cortex, Table 4; read-out: 3H-PZ-Binding KH (a)
Binary label based on Ki with cut-off 1000 nM: below gives TRUE, not below gives FALSE.

>  <compound>
CCC1=NCC2(CN3CCC2CC3)O1 (racemic) [AF123]

>  <category>
FALSE

$$$$
>  <compound>
CC1=NCC2(CN3CCC2CC3)O1 (racemic) [AF125]

>  <category>
FALSE

$$$$
>  <compound>
c1ccc(C2=NCC3(CN4CCC3CC4)O2)cc1 (stereo not drawn) [AF125(Ph)]

>  <category>
TRUE

$$$$
>  <compound>
CC1=NCC2(CCN(C)CC2)O1 [AF150]

>  <category>
TRUE

$$$$
>  <compound>
NC1=NCC2(CN3CCC2CC3)O1 (stereo not drawn) [AF125(N)]

>  <category>
TRUE

$$$$

* * *

# assay_target: M2 muscarinic receptors (Rattus norvegicus, UniProt P10980)
# Construct: displacing from rat brain homogenates, cerebellum or frontal cortex; from tissue; host or cells: rat cerebellum homogenates
# method_notes: Displacement of 3H-QNB from rat cerebellum, 50 mM phosphate buffer
# Format: binding
# measurement_parameters: cerebellum, Table 4

>  <compound>
c1ccc(C2=NCC3(CN4CCC3CC4)O2)cc1 (centres unmarked)

>  <assay_target>
M2 muscarinic receptors (Rattus norvegicus, UniProt P10980)

>  <unit_name>
%

>  <% H>
100

$$$$
>  <compound>
C[N+](C)(C)CC#CCOC(=O)Nc1cccc(Cl)c1

>  <assay_target>
M2 muscarinic receptors (Rattus norvegicus, UniProt P10980)

>  <unit_name>
%

>  <% H>
100

$$$$
>  <compound>
CC1=NCC2(CCN(C)CC2)O1

>  <assay_target>
M2 muscarinic receptors (Rattus norvegicus, UniProt P10980)

>  <unit_name>
%

>  <% H>
49

$$$$
>  <compound>
CCC1=NCC2(CN3CCC2CC3)O1 (racemic)

>  <assay_target>
M2 muscarinic receptors (Rattus norvegicus, UniProt P10980)

>  <unit_name>
%

>  <% H>
100

$$$$
>  <compound>
C[N+](C)(C)CC#CCN1CCCC1=O [Oxotremorine-M, reference compound]

>  <assay_target>
M2 muscarinic receptors (Rattus norvegicus, UniProt P10980)

>  <unit_name>
%

>  <% H>
49

$$$$
>  <compound>
CC1OC2(CS1)CN1CCC2CC1 (centres unmarked) [AF102B, reference compound]

>  <assay_target>
M2 muscarinic receptors (Rattus norvegicus, UniProt P10980)

>  <unit_name>
%

>  <% H>
100

$$$$
>  <compound>
NC1=NCC2(CN3CCC2CC3)O1 (centres unmarked)

>  <assay_target>
M2 muscarinic receptors (Rattus norvegicus, UniProt P10980)

>  <unit_name>
%

>  <% H>
100

$$$$
>  <compound>
O=C1CCCN1CC#CCN1CCCC1

>  <assay_target>
M2 muscarinic receptors (Rattus norvegicus, UniProt P10980)

>  <unit_name>
%

>  <% H>
35

$$$$

* * *

# assay_target: muscarinic receptors
# method_notes: (-)3H-QNB binding to rat cerebral cortex homogenates with and without Cu++ treatment
# measurement_parameters: with Cu++ pretreatment; read-out: KL
pKi: −log10 of the molar value.
assay_readout: pKi

>  <smiles_data>
CN1[C@@H]2C[C@@H](OC(=O)[C@H](CO)c3ccccc3)C[C@H]1[C@@H]1O[C@@H]12

>  <assay_target>
muscarinic receptors

>  <assay_readout>
pKi

>  <result>
10.00

$$$$
